- assay_summary: differential killing of epithelial or mesenchymal cells, primary screen, imaging, PC-3E GFP, TEM4-18 mCherry, co-culture (AID 1345086);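 further: normalised mesenchymal count divided by normalised epithelial count so high means epithelial killing; cells exposed to compound for 72 h before imaging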
- measurement_parameters: imaging cell counts, at 1 µM, actives lie on both sides, counts scaled to control wells, 1 = unselective

{"compound": "COC(=O)c1cc(OC)cc(OC(=O)c2c(O)cc3cc(C)oc(=O)c3c2O)c1O", "red/green cell ratio (normalised)": 0.92}
{"compound": "Cc1onc(-c2ccccc2)c1C(=O)NC1C(=O)N2[C@@H]1SC(C)(C)[C@@H]2C(=O)O (stereo partly drawn)", "red/green cell ratio (normalised)": 0.97}
{"compound": "COc1cc(C)c(Oc2cc(C)cc(O)c2O)c(O)c1", "red/green cell ratio (normalised)": 0.97}
{"compound": "CC(=O)NS(=O)(=O)c1ccc(NC(=O)c2ccccc2C(=O)O)cc1", "red/green cell ratio (normalised)": 0.81}
{"compound": "CCCC[C@@H](CC)COC(=O)C(C#N)=C(c1ccccc1)c1ccccc1", "red/green cell ratio (normalised)": 0.92}
{"compound": "COC(=O)CCC(=O)NC(=O)Cc1ccccc1", "red/green cell ratio (normalised)": 0.93}
{"compound": "CC(=O)C1C(=O)C=C(C)OC1=O (stereo not drawn)", "red/green cell ratio (normalised)": 1.08}
{"compound": "C=CC(C1=CC(=O)C=CC1=O)c1ccccc1 (stereo not drawn)", "red/green cell ratio (normalised)": 0.88}
{"compound": "NC(=O)c1c(Cl)nc(Cl)c2ccccc12", "red/green cell ratio (normalised)": 1.12}
{"compound": "C=C(C)C#CC1=C[C@@H](O)[C@@H]2O[C@]2([C@H](O)C=C(C)C)[C@@H]1O", "red/green cell ratio (normalised)": 0.95}
{"compound": "CCCc1ccc(C(=O)O)nc1", "red/green cell ratio (normalised)": 0.84}
{"compound": "Cc1ccc(S(=O)(=O)NCl)cc1", "red/green cell ratio (normalised)": 0.85}
{"compound": "C[C@@H]1OC(O[C@H]2[C@H](O)[C@@H](O)[C@H](OC[C@H]3O[C@@H](OC(=O)[C@]45CCC(C)(C)CC4C4=CCC6[C@@]7(C)CC[C@H](OC8OC[C@H](O)[C@H](O)[C@H]8OC8O[C@@H](C)[C@H](O)[C@@H](O)[C@H]8O)[C@@](C)(CO)C7CC[C@@]6(C)[C@]4(C)CC5)[C@H](O)[C@@H](O)[C@@H]3O)O[C@@H]2CO)[C@H](O)[C@H](O)[C@H]1O (stereo partly drawn)", "red/green cell ratio (normalised)": 0.98}
{"compound": "NCCCNCCCCNCCCN", "red/green cell ratio (normalised)": 1.05}
{"compound": "C=C1C(=O)OC(C(=O)OC)C1CCCCCCCC(C)O (stereo not drawn)", "red/green cell ratio (normalised)": 1.07}
{"compound": "CC(=O)Nc1ccc(S(=O)(=O)c2ccc(NC(C)=O)cc2)cc1", "red/green cell ratio (normalised)": 0.78}
{"compound": "COc1cc([C@@]2(C)[C@@H]3[C@@H](C)CCC[C@@H]3C=C[C@@H]2C)oc(=O)c1C=O", "red/green cell ratio (normalised)": 0.92}
{"compound": "C[C@@H]1[C@H](O)[C@@H](C)/C=C/C=C/C=C/C=C/C=C/C=C/C=C/[C@H](OC2O[C@H](C)[C@@H](O)[C@H](N)[C@@H]2O)C[C@@H]2O[C@](O)(C[C@@H](O)C[C@@H](O)[C@H](O)CC[C@@H](O)C[C@@H](O)CC(=O)O[C@H]1C)C[C@H](O)[C@H]2C(=O)O (stereo partly drawn)", "red/green cell ratio (normalised)": 0.82}
{"compound": "COc1ccc(-c2oc3cc(OC)c(OC)c(OC)c3c(=O)c2OC)cc1", "red/green cell ratio (normalised)": 1.04}
{"compound": "C[C@]12CCC(=O)C=C1CCC1C2[C@@H](O)C[C@@]2(C)C1CC[C@]2(O)C(=O)CO (stereo partly drawn)", "red/green cell ratio (normalised)": 1.04}
{"compound": "CN(C(=O)c1ccccc1)C1C(O[C@@H]2OC(COS(=O)(=O)O)C(NC(=O)c3ccccc3)[C@H](OS(=O)(=O)O)[C@H]2OS(=O)(=O)O)OC2C[C@@H](NC(=O)c3ccccc3)[C@@H](OC3C(NC(=O)c4ccccc4)C[C@@H](NC(=O)c4ccccc4)[C@H](OS(=O)(=O)O)[C@H]3OS(=O)(=O)O)OC2C1OS(=O)(=O)O (stereo partly drawn)", "red/green cell ratio (normalised)": 1}
{"compound": "CC(=O)O[C@H]1C(=O)[C@@]2(C)C([C@H](OC(=O)c3ccccc3)[C@]3(O)C[C@H](OC(=O)[C@H](O)[C@@H](NC(=O)c4ccccc4)c4ccccc4)C(C)=C1C3(C)C)[C@]1(OC(C)=O)CO[C@@H]1C[C@@H]2O (stereo partly drawn)", "red/green cell ratio (normalised)": 0.49}
{"compound": "CC(C)=C1CC[C@]2(C)[C@@H](O)CC[C@H]3[C@](C)(Cc4c[nH]c5ccccc45)[C@@H](C)CC[C@]132", "red/green cell ratio (normalised)": 0.86}
